Reference for the values: ChEMBL document CHEMBL4219124

# test_summary: Plasma concentration in Dunkin-Hartley guinea pig MIA-induced osteoarthritic pain model at 500 mg/kg, po measured 2 hrs post dose
# Type: ADME, organism-based, Cavia porcellus
measurement_name: concentration at 2 h (µM)
Give bare numbers, in µM.

Give me measured concentration at 2 h, please, for this compound: CC1(C)Cc2c(c(C(=O)Nc3ccc(F)c(C(F)(F)F)c3)cc3nc(Nc4c(F)cccc4Cl)[nH]c23)O1 3.54

* * *

# measured_on: Nuclear receptor subfamily 1 group I member 2 (Homo sapiens, UniProt O75469)
# Sequence (O75469 whole entry): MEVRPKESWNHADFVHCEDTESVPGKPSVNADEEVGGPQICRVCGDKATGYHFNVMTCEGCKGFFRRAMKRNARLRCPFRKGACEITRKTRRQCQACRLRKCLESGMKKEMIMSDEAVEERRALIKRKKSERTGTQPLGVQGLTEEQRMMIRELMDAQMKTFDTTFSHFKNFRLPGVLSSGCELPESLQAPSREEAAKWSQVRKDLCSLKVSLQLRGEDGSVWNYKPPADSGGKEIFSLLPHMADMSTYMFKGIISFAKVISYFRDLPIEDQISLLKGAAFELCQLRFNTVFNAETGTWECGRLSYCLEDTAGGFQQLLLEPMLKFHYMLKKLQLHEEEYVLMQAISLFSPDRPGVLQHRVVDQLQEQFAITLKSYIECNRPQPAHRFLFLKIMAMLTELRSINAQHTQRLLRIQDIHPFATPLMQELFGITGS
# test_summary: Activation of human PXR
measurement_name: pEC50
Numbers only, as −log10 of the molar value.

Give me measured pEC50, please, for this molecule: CC1(C)Cc2c(c(C(=O)Nc3ccc(F)c(C(F)(F)F)c3)cc3nc(Nc4c(F)cccc4Cl)[nH]c23)O1 5.61
